biological target: plasmin (Homo sapiens, UniProt P00747); assay: Determination of inhibition constants for plasmin; type: biochemical; set-up: purchased Calbiochem; settings: 25° C., substrate Chromozym PL, pH 8.0; read-out: Plasmin [Ki]
Sequence (P00747 581-810 limits assumed): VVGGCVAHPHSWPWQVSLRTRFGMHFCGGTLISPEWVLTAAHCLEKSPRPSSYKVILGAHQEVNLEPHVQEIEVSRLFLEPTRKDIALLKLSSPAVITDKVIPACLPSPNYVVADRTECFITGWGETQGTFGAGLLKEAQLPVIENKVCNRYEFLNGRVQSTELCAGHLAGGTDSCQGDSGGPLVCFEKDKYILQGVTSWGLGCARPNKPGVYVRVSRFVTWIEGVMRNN
Sequence (P00747 97-580 partner limits assumed): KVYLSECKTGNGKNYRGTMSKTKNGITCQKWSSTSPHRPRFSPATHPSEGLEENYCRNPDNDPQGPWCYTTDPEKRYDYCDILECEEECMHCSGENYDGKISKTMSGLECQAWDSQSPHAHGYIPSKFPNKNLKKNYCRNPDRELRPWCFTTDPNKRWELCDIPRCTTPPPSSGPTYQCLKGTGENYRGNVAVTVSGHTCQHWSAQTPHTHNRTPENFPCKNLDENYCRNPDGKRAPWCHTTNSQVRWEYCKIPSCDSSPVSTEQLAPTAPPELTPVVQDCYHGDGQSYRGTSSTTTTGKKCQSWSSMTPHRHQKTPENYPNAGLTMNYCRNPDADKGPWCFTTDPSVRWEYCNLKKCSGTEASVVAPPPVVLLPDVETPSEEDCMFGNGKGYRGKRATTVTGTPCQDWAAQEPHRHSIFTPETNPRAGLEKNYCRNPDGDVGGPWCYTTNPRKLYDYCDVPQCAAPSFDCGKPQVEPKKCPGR
quantity: Ki

                                input_smiles  quantity  value_observed
 0  N=C(N)c1ccc(CNC(=O)[C@H](Cc2cccc(CN)c2)NC(=O)[C@@H](Cc2cccc3ccccc23)NS(=O)(=O)Cc2ccc(C(=O)O)cc2)cc1        Ki       < 0.01 µM
 1  N=C(N)c1ccc(CNC(=O)[C@H](CCc2ccccc2)NC(=O)[C@@H](CCCc2ccccc2)NS(=O)(=O)Cc2ccccc2)cc1        Ki       < 0.01 µM
 2  N=C(N)c1ccc(CNC(=O)[C@H](CCc2ccc(CN)cc2)NC(=O)[C@@H](CCc2ccc(O)cc2)NS(=O)(=O)Cc2ccccc2)cc1        Ki       < 0.01 µM
 3  CC(C)(C)OC(=O)NCCCC[C@@H](NS(=O)(=O)Cc1ccccc1)C(=O)N[C@@H](CCc1ccncc1)C(=O)NCc1ccc(C(=N)N)cc1        Ki       < 0.01 µM
 4  N=C(N)c1ccc(CNC(=O)[C@H](Cc2cccc(CN)c2)NC(=O)[C@@H](CC2CCCCC2)NS(=O)(=O)Cc2ccccc2)cc1        Ki       < 0.01 µM
 5  N=C(N)c1ccc(CNC(=O)[C@H](Cc2cccc(CN)c2)NC(=O)[C@@H](CO)NS(=O)(=O)Cc2ccccc2)cc1        Ki        < 0.1 µM
 6  N=C(N)c1ccc(CNC(=O)[C@H](CCc2cc[n+]([O-])cc2)NC(=O)[C@@H](CCCc2ccccc2)NS(=O)(=O)Cc2ccccc2)cc1        Ki       < 0.01 µM
 7  N=C(N)c1ccc(CNC(=O)[C@H](CCc2ccncc2)NC(=O)[C@@H](CCc2ccccc2)NS(=O)(=O)Cc2ccccc2)cc1        Ki        < 0.1 µM
 8  N=C(N)c1ccc(CNC(=O)[C@H](Cc2cccc(CN)c2)NC(=O)[C@@H](Cc2ccc(-c3ccccc3)cc2)NS(=O)(=O)Cc2ccccc2)cc1        Ki       < 0.01 µM
 9  N=C(N)c1ccc(CNC(=O)[C@H](CCc2ccccc2)NC(=O)[C@@H](CCCc2ccncc2)NS(=O)(=O)Cc2cccc(C(=O)O)c2)cc1        Ki       < 0.01 µM
10  CC(C)(C)OC[C@@H](NS(=O)(=O)Cc1ccccc1)C(=O)N[C@@H](Cc1cccc(CN)c1)C(=O)NCc1ccc(C(=N)N)cc1        Ki       < 0.01 µM
11  N=C(N)c1ccc(CNC(=O)[C@H](CCc2ccncc2)NC(=O)[C@@H](CC2CCCCC2)NS(=O)(=O)Cc2ccccc2)cc1        Ki       < 0.01 µM

* * *

target: UniProt P00734; assay: Determination of inhibition constants for thrombin; assay type: biochemical
Entries annotated with measured Ki
quantity: Ki

>>> df
                                   compound  quantity  value_observed
0  N=C(N)c1ccc(CNC(=O)[C@H](Cc2cccc(CN)c2)NC(=O)[C@@H](Cc2cccc3ccccc23)NS(=O)(=O)Cc2ccccc2)cc1 [compound 15]        Ki        < 0.1 µM
1  CC(C)(C)c1ccc(C[C@@H](NS(=O)(=O)Cc2ccccc2)C(=O)N[C@@H](Cc2cccc(CN)c2)C(=O)NCc2ccc(C(=N)N)cc2)cc1 [compound 13]        Ki          < 1 µM
2  N=C(N)c1ccc(CNC(=O)[C@H](Cc2cccc(CN)c2)NC(=O)[C@@H](CCCc2ccccc2Cl)NS(=O)(=O)Cc2ccccc2)cc1 [compound 8]        Ki        < 0.1 µM
3  N=C(N)c1ccc(CNC(=O)[C@H](Cc2cccc(CN)c2)NC(=O)[C@@H](Cc2cccc3ccccc23)NS(=O)(=O)Cc2ccc(C(=O)O)cc2)cc1 [compound 16]        Ki          < 1 µM
4  COC(=O)c1ccc(CS(=O)(=O)N[C@H](CO)C(=O)N[C@@H](Cc2cccc(CN)c2)C(=O)NCc2ccc(C(=N)N)cc2)cc1 [compound 69]        Ki          > 1 µM
5  N=C(N)c1ccc(CNC(=O)[C@H](CCc2ccccc2)NC(=O)[C@@H](CCCc2ccncc2)NS(=O)(=O)Cc2cccc(C(=O)O)c2)cc1 [compound 50]        Ki          < 1 µM
